Numbers sourced from patent US11116760B2.

# ASSAY_SYSTEM: α4β7 integrin (Homo sapiens (Human), UniProt P13612+P26010)
# Sequence (P13612 34-1032): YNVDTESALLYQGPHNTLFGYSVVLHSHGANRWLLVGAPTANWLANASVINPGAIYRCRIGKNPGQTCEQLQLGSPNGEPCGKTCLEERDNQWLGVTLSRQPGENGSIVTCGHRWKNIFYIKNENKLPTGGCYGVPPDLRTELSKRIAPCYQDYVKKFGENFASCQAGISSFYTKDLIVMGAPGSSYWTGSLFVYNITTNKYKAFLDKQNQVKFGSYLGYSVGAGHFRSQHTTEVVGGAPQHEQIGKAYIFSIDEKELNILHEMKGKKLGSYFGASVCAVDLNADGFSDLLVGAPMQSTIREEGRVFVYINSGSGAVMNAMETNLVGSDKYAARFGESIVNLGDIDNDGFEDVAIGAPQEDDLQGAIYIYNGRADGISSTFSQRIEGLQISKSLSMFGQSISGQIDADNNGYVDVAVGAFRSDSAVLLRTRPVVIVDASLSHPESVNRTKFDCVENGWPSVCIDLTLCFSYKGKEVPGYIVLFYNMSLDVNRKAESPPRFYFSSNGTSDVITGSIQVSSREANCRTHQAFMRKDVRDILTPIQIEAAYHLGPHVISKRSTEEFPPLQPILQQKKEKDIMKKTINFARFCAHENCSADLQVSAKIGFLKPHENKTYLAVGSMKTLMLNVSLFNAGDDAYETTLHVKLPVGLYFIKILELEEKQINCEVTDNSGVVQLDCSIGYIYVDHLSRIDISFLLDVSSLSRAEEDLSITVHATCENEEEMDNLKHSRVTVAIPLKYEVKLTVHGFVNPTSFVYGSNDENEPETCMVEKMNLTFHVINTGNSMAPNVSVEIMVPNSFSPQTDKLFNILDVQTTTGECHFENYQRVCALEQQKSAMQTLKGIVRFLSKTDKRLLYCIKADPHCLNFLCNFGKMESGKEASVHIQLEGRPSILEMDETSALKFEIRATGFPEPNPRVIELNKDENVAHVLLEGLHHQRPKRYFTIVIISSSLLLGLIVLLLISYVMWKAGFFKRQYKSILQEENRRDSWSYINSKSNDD
# Sequence (P26010 20-798): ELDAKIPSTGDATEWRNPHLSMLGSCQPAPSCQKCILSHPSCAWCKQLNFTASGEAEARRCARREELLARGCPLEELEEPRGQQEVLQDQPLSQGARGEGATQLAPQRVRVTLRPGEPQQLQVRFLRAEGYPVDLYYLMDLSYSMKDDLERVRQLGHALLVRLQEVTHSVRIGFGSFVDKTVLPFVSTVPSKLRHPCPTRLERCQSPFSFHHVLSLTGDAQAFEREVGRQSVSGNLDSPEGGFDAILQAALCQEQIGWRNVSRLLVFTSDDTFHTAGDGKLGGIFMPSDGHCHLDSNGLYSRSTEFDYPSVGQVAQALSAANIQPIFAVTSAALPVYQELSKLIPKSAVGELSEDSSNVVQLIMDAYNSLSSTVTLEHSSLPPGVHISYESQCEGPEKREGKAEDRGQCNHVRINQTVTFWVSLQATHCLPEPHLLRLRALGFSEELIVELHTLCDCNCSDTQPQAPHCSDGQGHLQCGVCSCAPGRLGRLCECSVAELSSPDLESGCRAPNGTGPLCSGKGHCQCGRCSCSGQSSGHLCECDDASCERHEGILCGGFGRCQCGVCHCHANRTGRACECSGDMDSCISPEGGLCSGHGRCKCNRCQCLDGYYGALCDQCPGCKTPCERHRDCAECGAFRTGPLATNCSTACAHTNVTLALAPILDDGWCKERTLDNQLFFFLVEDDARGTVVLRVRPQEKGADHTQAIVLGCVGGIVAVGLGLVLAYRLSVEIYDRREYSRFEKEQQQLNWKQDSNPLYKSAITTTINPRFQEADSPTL
# TEST_DESCRIPTION: α4β7 Integrin Cell Capture Assay
# Format: cell-based
# TEST_CONDITIONS: Table 1; capture of α4β7 expressing RPM18866 cells on MadCAM-1 extracellular domain-coated plate
pEC50: −log10 of the molar value.
RECORDED_METRIC: pEC50

C[C@@H](NC(=O)c1cc(F)c(C(=O)N[C@@H](Cc2ccc(-c3ccc(C#N)cc3Cl)c3ncccc23)C(=O)O)c(F)c1)c1ccccc1 : 7.89

(a) C[C@@H](N(C)c1cc(F)c(C(=O)N[C@@H](Cc2ccc(-c3ccc(C#N)cc3Cl)c3ncccc23)C(=O)O)c(F)c1)C(F)(F)F
(b) O=C(N[C@@H](Cc1ccc(-c2ccsc2)c2ncccc12)C(=O)O)c1c(F)cc(NS(=O)(=O)c2ccc(-c3ccnc(F)c3)cc2)cc1F
(c) N#Cc1ccc(-c2ccc(C[C@H](NC(=O)c3c(F)cc(N4CCOCC4)cc3F)C(=O)O)c3cccnc23)c(Cl)c1
Enquiry: Given 3 compounds, produce a descending ranking by pEC50. Returns: the labels listed in the requested order.
Return: a, c, b

* * *

# ASSAY_SYSTEM: α4β7 integrin (Homo sapiens (Human), UniProt P13612+P26010)
# TEST_DESCRIPTION: α4β7 Integrin Cell Capture Assay
# Format: cell-based
# TEST_CONDITIONS: Table 1; capture of α4β7 expressing RPM18866 cells on MadCAM-1 extracellular domain-coated plate
RECORDED_METRIC: EC50 (nM)

Consider the worked cases shown below.
CS(=O)(=O)c1cc(F)ccc1-c1ccc(C[C@H](NC(=O)c2c(F)cc(NS(=O)(=O)c3ccc(-c4ccnc(F)c4)cc3)cc2F)C(=O)O)c2cccnc12 : 4.2
N#Cc1cc(Cl)c(-c2ccc(C[C@H](NC(=O)c3c(Cl)cccc3Cl)C(=O)O)c3cccnc23)c(Cl)c1 : 6.7
O=C(N[C@@H](Cc1ccc(-c2ccccc2C(F)(F)F)c2ncccc12)C(=O)O)c1c(F)cc(NS(=O)(=O)c2ccc(-c3ccnc(F)c3)cc2)cc1F : 8.4
Cc1cc(N2CCC2)c(-c2ccc(C[C@H](NC(=O)c3c(F)cc(N4CCOC[C@@H]4C(F)(F)F)cc3F)C(=O)O)c3cccnc23)c(=O)n1C : 0.7

(A) CC[C@@H](Nc1cc(F)c(C(=O)N[C@@H](Cc2ccc(-c3c(C(F)(F)F)c4ccccc4n(C)c3=O)c3ncccc23)C(=O)O)c(F)c1)C(F)(F)F
(B) N#Cc1ccc(-c2ccc(C[C@H](NC(=O)c3c(F)ccc(OC(F)F)c3F)C(=O)O)c3cccnc23)c(Cl)c1
Enquiry: # query: argmin of EC50 over A and B Give the label of your selection.
Return: A
(A: 0.9 nM, B: 67.4 nM)

* * *

# ASSAY_SYSTEM: α4β7 integrin (Homo sapiens (Human), UniProt P13612+P26010)
# TEST_DESCRIPTION: α4β7 Integrin Cell Capture Assay
# Format: cell-based
# TEST_CONDITIONS: Table 2; capture of α4β7 expressing RPM18866 cells on MadCAM-1 extracellular domain-coated plate
pEC50: −log10 of the molar value.
RECORDED_METRIC: pEC50

Cc1c(N(C)C)cc(-c2ccc(C[C@H](NC(=O)c3c(F)cc(N4CCOC[C@@H]4C(F)(F)F)cc3F)C(=O)O)c3cccnc23)c(=O)n1C : 8.43
CC[C@@H](Nc1cc(F)c(C(=O)N[C@@H](Cc2ccc(-c3nccc(C)c3N(C)C)c3ncccc23)C(=O)O)c(F)c1)C(F)(F)F : 8.08
CC[C@@H](Nc1cc(F)c(C(=O)N[C@@H](Cc2ccc(-c3c(C)c(Cl)cn(C)c3=O)c3ncccc23)C(=O)O)c(F)c1)C(F)(F)F : 8.82
CC[C@@H](Nc1cc(F)c(C(=O)N[C@@H](Cc2ccc(-c3c(C(F)(F)F)c4cc(N(C)C)ccc4n(C)c3=O)c3ncccc23)C(=O)O)c(F)c1)C(F)(F)F (atropisomer, axis not shown) [Example 302] : 8.03

(A) COc1cc(C)n(C)c(=O)c1-c1ccc(C[C@H](NC(=O)c2c(F)cc(N3CCCC[C@@H]3C(F)(F)F)cc2F)C(=O)O)c2cccnc12
(B) N#Cc1ccc(-c2ccc(C[C@H](NC(=O)c3c(F)cc(N[C@H](c4cccc(F)c4)C(F)(F)F)cc3F)C(=O)O)c3cccnc23)c(Cl)c1
Enquiry: Which has the higher pEC50, A or B ? Give the label of your selection.
Return: A
(A: 8.92, B: 7.62)
